# SYSTEM: UniProt P35222
# Sequence (P35222 1-781): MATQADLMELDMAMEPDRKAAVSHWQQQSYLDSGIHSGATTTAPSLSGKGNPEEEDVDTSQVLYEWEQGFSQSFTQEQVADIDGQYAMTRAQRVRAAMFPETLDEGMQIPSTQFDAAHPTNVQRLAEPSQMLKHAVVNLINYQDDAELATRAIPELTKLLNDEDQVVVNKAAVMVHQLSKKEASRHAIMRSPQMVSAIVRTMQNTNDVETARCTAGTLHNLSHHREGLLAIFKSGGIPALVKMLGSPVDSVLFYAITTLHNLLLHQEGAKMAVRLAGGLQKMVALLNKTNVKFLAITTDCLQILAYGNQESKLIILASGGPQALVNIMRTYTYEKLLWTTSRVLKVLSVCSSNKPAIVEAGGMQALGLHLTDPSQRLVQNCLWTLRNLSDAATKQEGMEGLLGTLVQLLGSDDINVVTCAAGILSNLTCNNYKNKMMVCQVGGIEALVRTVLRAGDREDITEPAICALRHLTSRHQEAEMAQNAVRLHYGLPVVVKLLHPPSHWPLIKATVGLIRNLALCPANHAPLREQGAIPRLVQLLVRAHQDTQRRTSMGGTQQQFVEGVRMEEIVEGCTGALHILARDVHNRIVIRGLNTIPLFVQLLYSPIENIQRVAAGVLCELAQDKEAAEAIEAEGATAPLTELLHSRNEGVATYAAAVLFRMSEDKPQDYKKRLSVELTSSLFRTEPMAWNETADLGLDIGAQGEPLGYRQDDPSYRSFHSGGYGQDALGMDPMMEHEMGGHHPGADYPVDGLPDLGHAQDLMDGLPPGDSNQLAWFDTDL
# PROTOCOL: ELISA for inhibition of complex formation of β-Catenin and LEF-1 (recombinant His-tagged proteins, detection with antibody PA2)
# TEST SETTINGS: recombinant LEF-1 adsorbed, 50-100 ng β-Catenin, 10% DMSO final, substances 1 µM to 10 mM, read-out: IC50 Hemmung der Komplexbildung von β-Catenin und LEF/TCF
Assignment: determine reported IC50 for the given compounds.
Give bare numbers, in µM.

For each entry beneath this line, provide reported IC50.
1. CCCCCCCCCCCCCCCCCC(=O)OC[C@H]1OC(O)[C@H](NC(C)=O)[C@@H](O[C@H](C)C(=O)N[C@@H](C)C(=O)N[C@H](CCC(=O)O)C(N)=O)[C@@H]1O (some centres unmarked)
2. Cn1nnnc1SCC1=C(C(=O)O)N2C(=O)[C@@H](NC(=O)[C@H](O)c3ccccc3)[C@H]2SC1

[100, 25]

* * *

# SYSTEM: Komplexbildung von β-Catenin und LEF-1 (Homo sapiens, UniProt P35222)
# Sequence (P35222 1-781): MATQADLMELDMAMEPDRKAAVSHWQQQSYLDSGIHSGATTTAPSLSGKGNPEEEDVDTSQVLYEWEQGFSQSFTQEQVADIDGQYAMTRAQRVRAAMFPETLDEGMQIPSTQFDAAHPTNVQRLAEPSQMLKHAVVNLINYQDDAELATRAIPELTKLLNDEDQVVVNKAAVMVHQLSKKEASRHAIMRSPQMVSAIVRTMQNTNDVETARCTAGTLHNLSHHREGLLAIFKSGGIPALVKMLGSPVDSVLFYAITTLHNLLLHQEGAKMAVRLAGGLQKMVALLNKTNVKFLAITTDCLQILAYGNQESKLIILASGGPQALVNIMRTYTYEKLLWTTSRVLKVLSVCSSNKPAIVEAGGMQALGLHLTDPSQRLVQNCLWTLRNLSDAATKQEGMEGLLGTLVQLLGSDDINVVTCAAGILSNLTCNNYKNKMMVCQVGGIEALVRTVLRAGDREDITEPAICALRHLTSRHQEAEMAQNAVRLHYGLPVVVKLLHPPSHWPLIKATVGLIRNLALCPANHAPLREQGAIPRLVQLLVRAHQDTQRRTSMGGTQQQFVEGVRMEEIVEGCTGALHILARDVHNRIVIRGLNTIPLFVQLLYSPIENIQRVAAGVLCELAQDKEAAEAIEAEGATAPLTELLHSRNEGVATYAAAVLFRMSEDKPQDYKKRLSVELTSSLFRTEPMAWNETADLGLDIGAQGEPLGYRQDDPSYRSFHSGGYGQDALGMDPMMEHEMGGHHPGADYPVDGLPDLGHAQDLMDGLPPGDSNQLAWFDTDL
# PROTOCOL: ELISA for inhibition of complex formation of β-Catenin and LEF-1 (recombinant His-tagged proteins, detection with antibody PA2)
# TEST SETTINGS: recombinant LEF-1 adsorbed, 50-100 ng β-Catenin, 10% DMSO final, substances 1 µM to 10 mM, read-out: IC50 Hemmung der Komplexbildung von β-Catenin und LEF/TCF
ENDPOINT LABEL: IC50

A selection of reference data follows.
[
  {
    "MOLECULE": "Cn1nnnc1SCC1=C(C(=O)O)N2C(=O)[C@@H](NC(=O)[C@H](OC=O)c3ccccc3)[C@H]2SC1 [Cefamandole-Nafate]",
    "ENDPOINT LABEL": "IC50",
    "RESULT": "50 to 100 µM"
  },
  {
    "MOLECULE": "NC(=O)c1cc[n+](CC2=C(C(=O)O)N3C(=O)[C@@H](NC(=O)[C@@H](c4ccccc4)S(=O)(=O)[O-])[C@H]3SC2)cc1",
    "ENDPOINT LABEL": "IC50",
    "RESULT": "50 to 100 µM"
  }
]

Continue with the next molecule.
Lab note: CC1=C(C(=O)O)N2C(=O)[C@@H](NC(=O)[C@H](N)c3ccc(O)cc3)[C@H]2SC1 gave IC50 of 50 to 100 µM
